# experimental details: Inhibition of Glycosidase (unknown origin)
# Design: species or system Homo sapiens
quantity: IC50 (nM)

Example entries begin here.
C[C@@]1(O)CN[C@H](CO)[C@@H]1O | 12000
C[C@]1(CO)NC[C@H](O)[C@@H](O)[C@@H]1O | 1000
C[C@]1(O)CN2C[C@H](O)[C@H](O)[C@@H]2[C@@H](O)[C@@H]1O | 200

a. C[C@@]1(O)[C@H](O)CN[C@@H]1CO
b. C[C@@H]1NC[C@@H](O)[C@H](O)[C@]1(C)O
Request: Lab note: check whether a or b shows the higher recorded IC50. Refer to your chosen entry by its label in the reply.
Result: b
(b: 50000 nM, a: 800 nM)

----------
# experimental details: Inhibition of Maltase (unknown origin)
# Parameters: species or system Homo sapiens
quantity: IC50 (µM)
Return type: number; implicit unit µM.

Lab note: OC[C@H]1NC[C@@H](O)[C@@H]1O gave IC50 of 55

----------
# experimental details: Inhibition of Lysosomal alpha-glucosidase in Aspergillus niger
quantity: IC50 (nM)
Return type: number; implicit unit nM.

Lab note: OC[C@H]1NC[C@@H](O)[C@H]1O gave IC50 of 190

----------
# tgt: Sucrase-isomaltase, intestinal (Homo sapiens)
# Sequence (P14410 2-1007 limits assumed): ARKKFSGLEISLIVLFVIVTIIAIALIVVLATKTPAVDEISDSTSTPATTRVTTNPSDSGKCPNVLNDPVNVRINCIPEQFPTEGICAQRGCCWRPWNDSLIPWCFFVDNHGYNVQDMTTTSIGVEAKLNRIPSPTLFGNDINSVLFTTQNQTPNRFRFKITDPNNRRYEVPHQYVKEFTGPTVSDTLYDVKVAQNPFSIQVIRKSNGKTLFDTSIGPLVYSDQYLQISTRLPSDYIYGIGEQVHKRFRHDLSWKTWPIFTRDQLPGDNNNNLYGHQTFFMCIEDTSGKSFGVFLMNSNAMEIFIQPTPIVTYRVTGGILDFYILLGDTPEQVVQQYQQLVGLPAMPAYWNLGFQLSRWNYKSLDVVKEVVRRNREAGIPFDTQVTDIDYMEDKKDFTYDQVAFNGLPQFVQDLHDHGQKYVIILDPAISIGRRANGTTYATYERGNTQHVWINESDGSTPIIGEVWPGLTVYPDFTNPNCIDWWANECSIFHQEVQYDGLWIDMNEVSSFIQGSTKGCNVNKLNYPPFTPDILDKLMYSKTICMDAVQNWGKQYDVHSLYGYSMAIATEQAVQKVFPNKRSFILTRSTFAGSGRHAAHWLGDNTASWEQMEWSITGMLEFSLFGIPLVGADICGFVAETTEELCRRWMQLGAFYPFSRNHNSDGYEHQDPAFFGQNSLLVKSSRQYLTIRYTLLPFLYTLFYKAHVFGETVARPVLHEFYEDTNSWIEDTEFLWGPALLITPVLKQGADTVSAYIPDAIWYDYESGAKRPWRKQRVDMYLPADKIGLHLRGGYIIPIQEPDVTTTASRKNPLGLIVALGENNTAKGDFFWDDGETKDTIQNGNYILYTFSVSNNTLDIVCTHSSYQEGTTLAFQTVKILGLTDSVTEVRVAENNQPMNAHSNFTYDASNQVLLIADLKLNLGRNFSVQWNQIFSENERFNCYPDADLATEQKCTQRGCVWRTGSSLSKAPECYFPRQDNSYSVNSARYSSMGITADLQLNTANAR
# Sequence (P14410 1008-1827 limits assumed): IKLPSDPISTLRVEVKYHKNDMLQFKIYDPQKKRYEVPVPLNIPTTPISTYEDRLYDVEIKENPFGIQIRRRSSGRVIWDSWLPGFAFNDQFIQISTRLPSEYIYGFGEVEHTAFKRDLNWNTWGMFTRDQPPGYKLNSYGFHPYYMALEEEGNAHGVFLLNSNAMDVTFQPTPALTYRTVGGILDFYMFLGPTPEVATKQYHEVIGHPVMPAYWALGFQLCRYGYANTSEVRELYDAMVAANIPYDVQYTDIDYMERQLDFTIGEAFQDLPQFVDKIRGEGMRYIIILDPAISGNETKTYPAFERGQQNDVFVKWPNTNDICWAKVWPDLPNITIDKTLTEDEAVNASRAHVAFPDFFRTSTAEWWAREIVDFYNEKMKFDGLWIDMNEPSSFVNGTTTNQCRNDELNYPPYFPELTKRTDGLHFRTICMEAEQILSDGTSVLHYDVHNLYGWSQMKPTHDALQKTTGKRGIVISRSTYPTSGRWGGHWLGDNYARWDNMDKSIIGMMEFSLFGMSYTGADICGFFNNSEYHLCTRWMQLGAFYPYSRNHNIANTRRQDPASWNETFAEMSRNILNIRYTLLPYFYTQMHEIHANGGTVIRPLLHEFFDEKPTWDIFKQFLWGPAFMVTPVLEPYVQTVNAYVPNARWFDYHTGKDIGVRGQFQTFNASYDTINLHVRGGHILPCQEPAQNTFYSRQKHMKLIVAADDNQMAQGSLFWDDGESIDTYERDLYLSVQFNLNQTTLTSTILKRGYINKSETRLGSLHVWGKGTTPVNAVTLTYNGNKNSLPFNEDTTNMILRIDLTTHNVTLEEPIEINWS
quantity: IC50 (µM)
Return type: number; implicit unit µM.

Lab note: OC[C@@H]1NC[C@H](O)[C@H]1O gave IC50 of 1

----------
# experimental details: Inhibition of Endoplasmic reticulum alpha-glucosidase (unknown origin)
# Parameters: species or system Homo sapiens
quantity: pIC50
Quick note: pIC50 means taking -log10 of the concentration in moles per liter.

Lab note: OC[C@H]1NC[C@H](O)[C@@H](O)[C@@H]1O gave pIC50 of 5.85
